Quick reference for pKi among some compounds
Target: UniProt:Q92831
Sequence (Q92831 whole entry): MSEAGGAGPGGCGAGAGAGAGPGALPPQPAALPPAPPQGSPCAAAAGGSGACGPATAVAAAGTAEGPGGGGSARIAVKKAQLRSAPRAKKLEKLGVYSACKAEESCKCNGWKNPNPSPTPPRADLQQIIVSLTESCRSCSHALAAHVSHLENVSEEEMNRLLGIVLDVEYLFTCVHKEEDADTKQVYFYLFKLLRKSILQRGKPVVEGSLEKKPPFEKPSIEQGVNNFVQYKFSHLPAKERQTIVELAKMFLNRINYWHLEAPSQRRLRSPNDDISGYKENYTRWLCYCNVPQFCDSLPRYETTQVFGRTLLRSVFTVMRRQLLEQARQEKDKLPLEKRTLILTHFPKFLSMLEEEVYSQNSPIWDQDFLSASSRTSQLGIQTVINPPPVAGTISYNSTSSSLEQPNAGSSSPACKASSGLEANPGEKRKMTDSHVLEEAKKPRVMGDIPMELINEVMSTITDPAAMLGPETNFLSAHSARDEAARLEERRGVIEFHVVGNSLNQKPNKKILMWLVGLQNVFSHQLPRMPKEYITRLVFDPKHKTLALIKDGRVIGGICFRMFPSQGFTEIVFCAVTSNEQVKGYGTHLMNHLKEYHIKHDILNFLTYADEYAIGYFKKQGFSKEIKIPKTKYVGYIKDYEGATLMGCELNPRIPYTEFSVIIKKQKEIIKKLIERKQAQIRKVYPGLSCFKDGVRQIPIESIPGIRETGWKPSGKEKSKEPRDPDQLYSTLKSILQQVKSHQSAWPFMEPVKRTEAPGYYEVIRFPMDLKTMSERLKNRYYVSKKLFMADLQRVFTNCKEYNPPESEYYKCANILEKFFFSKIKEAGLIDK
Experiment: Displacement of fluorescein-labeled MS239 from recombinant human PCAF after 1 hr by fluorescence anisotropy assay
pKi: −log10 of the molar value.

compound.smiles	pKi
Cc1cc(/N=N/c2ccc(S(=O)(=O)Nc3ccccn3)cc2)c(N)c(Cl)c1O	> 5.48
Cc1cc(/N=N/c2ccc(S(=O)(=O)Nc3ccccn3)cc2)c(N)c(C)c1O	> 5.48
Cc1cc(/N=N/c2ccc(S(=O)(=O)Nc3ccccn3)cc2)c(N)cc1O	5.26

* * *

Molecular target: Bromodomain-containing protein 3 (Homo sapiens, UniProt Q15059)
Sequence (Q15059 whole entry): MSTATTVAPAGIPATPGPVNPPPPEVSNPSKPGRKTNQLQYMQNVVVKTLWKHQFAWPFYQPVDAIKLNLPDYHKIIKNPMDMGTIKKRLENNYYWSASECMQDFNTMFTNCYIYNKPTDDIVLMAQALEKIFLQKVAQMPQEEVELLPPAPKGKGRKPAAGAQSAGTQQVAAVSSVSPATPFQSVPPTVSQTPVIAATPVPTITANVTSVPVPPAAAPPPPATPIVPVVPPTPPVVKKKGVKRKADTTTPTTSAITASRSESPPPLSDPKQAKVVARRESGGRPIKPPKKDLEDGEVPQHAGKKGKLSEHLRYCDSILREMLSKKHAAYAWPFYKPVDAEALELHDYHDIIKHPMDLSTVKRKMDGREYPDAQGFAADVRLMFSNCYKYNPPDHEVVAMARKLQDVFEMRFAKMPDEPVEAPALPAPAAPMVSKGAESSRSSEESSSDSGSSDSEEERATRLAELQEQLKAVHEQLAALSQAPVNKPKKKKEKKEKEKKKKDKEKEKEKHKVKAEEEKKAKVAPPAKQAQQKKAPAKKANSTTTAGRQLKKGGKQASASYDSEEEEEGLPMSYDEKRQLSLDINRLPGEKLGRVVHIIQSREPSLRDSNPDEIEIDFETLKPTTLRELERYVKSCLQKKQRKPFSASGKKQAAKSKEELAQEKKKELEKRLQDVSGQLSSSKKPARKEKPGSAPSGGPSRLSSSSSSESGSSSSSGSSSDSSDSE
Experiment: Displacement of fluorescein-labeled MS574 from recombinant human BRD3 BrD2 after 1 hr by fluorescence anisotropy assay
Reported Ki by item:
assay.endpoint: Ki (nM)

compound.smiles	observed.measurement
Cc1cc(/N=N/c2ccc(S(=O)(=O)Nc3ccccn3)cc2)c(N)c(Cl)c1O	320
Cc1cc(/N=N/c2ccc(S(=O)(=O)Nc3ccccn3)cc2)c(N)c(C)c1O	220
Cc1cc(/N=N/c2ccc(S(=O)(=O)Nc3ccccn3)cc2)cc(C)c1O	2480
Cc1cc(/N=N/c2ccc(S(=O)(=O)Nc3ccccn3)cc2)c(N)cc1O	140

* * *

Target: SWI/SNF-related matrix-associated actin-dependent regulator of chromatin subfamily A member 4 (Homo sapiens)
Sequence (P51532 whole entry): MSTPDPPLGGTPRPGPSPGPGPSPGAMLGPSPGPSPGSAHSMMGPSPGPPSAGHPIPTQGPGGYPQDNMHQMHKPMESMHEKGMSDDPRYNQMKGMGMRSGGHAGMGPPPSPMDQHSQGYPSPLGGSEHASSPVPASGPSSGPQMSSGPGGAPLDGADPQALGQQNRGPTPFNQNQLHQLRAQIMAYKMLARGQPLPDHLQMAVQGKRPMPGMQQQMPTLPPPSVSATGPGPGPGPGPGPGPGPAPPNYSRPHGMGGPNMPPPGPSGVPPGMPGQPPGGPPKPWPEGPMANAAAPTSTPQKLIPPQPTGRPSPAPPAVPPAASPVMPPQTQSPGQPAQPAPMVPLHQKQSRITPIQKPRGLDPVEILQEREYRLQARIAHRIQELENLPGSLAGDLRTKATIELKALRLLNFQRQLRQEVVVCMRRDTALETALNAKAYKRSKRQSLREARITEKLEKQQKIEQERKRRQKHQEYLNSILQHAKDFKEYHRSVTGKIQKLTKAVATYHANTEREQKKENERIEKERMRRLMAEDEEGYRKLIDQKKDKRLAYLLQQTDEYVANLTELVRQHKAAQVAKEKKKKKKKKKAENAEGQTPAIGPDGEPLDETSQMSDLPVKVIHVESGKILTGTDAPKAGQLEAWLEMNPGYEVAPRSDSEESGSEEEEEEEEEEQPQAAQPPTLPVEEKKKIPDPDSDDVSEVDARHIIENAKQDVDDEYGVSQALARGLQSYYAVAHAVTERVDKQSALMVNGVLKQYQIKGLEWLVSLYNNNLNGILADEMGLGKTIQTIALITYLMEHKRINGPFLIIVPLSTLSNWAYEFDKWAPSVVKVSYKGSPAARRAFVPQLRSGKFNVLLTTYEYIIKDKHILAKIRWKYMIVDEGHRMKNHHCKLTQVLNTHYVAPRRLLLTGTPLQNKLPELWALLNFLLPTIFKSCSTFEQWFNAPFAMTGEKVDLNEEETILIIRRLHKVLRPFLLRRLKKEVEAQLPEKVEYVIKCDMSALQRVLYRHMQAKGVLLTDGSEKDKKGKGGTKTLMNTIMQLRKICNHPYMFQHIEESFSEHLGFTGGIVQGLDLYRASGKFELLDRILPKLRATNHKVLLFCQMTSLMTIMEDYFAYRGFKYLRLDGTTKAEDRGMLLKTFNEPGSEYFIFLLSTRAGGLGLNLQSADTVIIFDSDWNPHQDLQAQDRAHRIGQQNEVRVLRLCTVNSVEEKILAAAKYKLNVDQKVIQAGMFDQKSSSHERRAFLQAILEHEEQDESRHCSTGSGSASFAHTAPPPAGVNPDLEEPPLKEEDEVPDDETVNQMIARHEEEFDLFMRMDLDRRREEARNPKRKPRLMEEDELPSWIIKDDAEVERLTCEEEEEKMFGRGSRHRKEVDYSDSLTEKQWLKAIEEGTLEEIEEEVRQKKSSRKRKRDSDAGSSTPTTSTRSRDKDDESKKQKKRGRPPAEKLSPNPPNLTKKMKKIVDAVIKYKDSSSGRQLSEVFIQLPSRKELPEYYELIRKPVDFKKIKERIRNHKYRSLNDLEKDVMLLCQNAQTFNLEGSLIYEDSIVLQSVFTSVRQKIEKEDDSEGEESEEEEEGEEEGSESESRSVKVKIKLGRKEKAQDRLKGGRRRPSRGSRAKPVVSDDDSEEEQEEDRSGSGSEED
Assay: Displacement of fluorescein-labeled MS239 from recombinant human SMARCA4 bromodomain after 1 hr by fluorescence anisotropy assay
pKi: −log10 of the molar value.
assay.endpoint: pKi

compound.smiles	observed.measurement
Cc1cc(/N=N/c2ccc(S(=O)(=O)Nc3ccccn3)cc2)c(N)c(Cl)c1O	> 5.18
Cc1cc(/N=N/c2ccc(S(=O)(=O)Nc3ccccn3)cc2)cc(C)c1O	> 5.18
Cc1cc(/N=N/c2ccc(S(=O)(=O)Nc3ccccn3)cc2)c(N)c(C)c1O	> 5.18
Cc1cc(/N=N/c2ccc(S(=O)(=O)Nc3ccccn3)cc2)c(N)cc1O	5.10

* * *

Molecular target: Bromodomain-containing protein 4 (Homo sapiens, UniProt O60885)
Assay: Displacement of fluorescein-labeled MS574 from recombinant human BRD4 BrD1 after 1 hr by fluorescence anisotropy assay
Details: read-out: Ki
pKi: −log10 of the molar value.
assay.endpoint: pKi

compound	reported.relation	observed.measurement
Cc1cc(/N=N/c2cc(S(=O)(=O)O)c(C)cc2C)c(N)cc1O [ISCHEMIN]	=	4.96
Cc1cc(/N=N/c2ccc(S(=O)(=O)Nc3ccc(C(N)=O)cc3)cc2)cc(C)c1O	=	5.02
Cc1cc(/N=N/c2ccc(S(=O)(=O)Nc3ccc(Br)cn3)cc2)cc(C)c1O	=	5.18
O=S(=O)(Nc1ccccn1)c1ccc(/N=N/c2ccc(O)c(Cl)c2)cc1	=	5.89
O=S(=O)(Nc1ccccn1)c1ccc(/N=N/c2cc(Br)c(O)c(Br)c2)cc1	=	6.28
Cc1cc(/N=N/c2ccc(S(=O)(=O)Nc3ccccn3)cc2)cc(Cl)c1O	=	5.85
Cc1cc(/N=N/c2ccc(S(=O)(=O)Nc3ccc(Cl)cn3)cc2)cc(C)c1O	=	6.14
COc1cc(/N=N/c2cc(C)c(O)c(C)c2)ccc1S(=O)(=O)Nc1ccccn1	=	5.50
Cc1cc(/N=N/c2cccc(S(=O)(=O)Nc3ccccn3)c2)cc(C)c1O	=	5.22
Cc1cc(C)c(S(=O)(=O)O)cc1/N=N/c1cc(C)c(O)c(C)c1	=	5.31
O=S(=O)(Nc1ccccn1)c1ccc(/N=N/c2ccc(O)c(O)c2)cc1	=	5.34
Cc1nc(/N=N/c2ccc(S(=O)(=O)Nc3ccccn3)cc2)c(C)c(C)c1O	=	5.22
O=S(=O)(Nc1ccccn1)c1ccc(/N=N/c2cc(Cl)c(O)c(Cl)c2)cc1	=	5.90
COc1ccc(NS(=O)(=O)c2ccc(/N=N/c3cc(C)c(O)c(C)c3)cc2)cc1	=	5.19
Cc1cc(/N=N/c2ccc(S(=O)(=O)Nc3cc(Cl)ccn3)cc2)cc(C)c1O	=	6.05
Cc1cc(/N=N/c2ccc(S(=O)(=O)Nc3ccccn3)cc2)c(N)c(C)c1O	=	6.82
Cc1cc(/N=N/c2ccc(S(=O)(=O)Nc3ccccn3)cc2)cc(Br)c1O	=	5.55
COc1cc(/N=N/c2ccc(S(=O)(=O)Nc3ccccn3)cc2)c(N)cc1O	=	5.89
Cc1cc(/N=N/c2ccc(S(=O)(=O)Nc3ccccn3)cc2)cc(C)c1O	=	6.04
Cc1cc(/N=N/c2ccc(S(=O)(=O)NCc3ccc(C(F)(F)F)cc3)cc2)cc(C)c1O	<	4.00
